# TEST NAME: Viability qHTS for spleen associated tyrosine kinase inhibitor (SYKi) drug resistant MV4-11 cells (AID 1963824); also: nearly all actives have a fitted effect of over 35% in size; also: potency is read from the fitted curve at half-maximal effect
# CONDITION CONTEXT: SYKi-resistant MV4-11 viability, CellTiter-Glo, 72 h; series mostly up to 45 µM
Inconclusive results are not listed. Active and inactive are the calls of the source. Calls follow the shape of the dose curve; as a rule, active = well fitted cell-killing curve with a large enough effect; inconclusive = small, poorly fitted or top-dose-only effect, or effect the other way; inactive = no such curve, though single readings can be large or run the other way.
PROPERTY LABEL: Potency

{"STRUCTURE NOTATION": "CCOC(=O)c1cnc2ccc(-c3cncc(NS(=O)(=O)c4ccccc4)c3)cn12", "VALUE REPORTED": "0.231 µM (active)"}
{"STRUCTURE NOTATION": "COc1ccc2c(c1)c(CC(=O)OCC(=O)O)c(C)n2C(=O)c1ccc(Cl)cc1", "VALUE REPORTED": "inactive"}
{"STRUCTURE NOTATION": "COc1c(O)cc2c(c1O)[C@@H]1O[C@H](CO)[C@@H](O)[C@H](O)[C@H]1OC2=O", "VALUE REPORTED": "inactive"}
{"STRUCTURE NOTATION": "COc1cccc2c1C(=O)c1c(O)c3c(c(O)c1C2=O)C[C@@](O)(/C(CO)=N/NC(=O)CCCCCN1C(=O)C=CC1=O)C[C@@H]3O[C@H]1C[C@H](N)[C@H](O)[C@H](C)O1", "VALUE REPORTED": "0.186 µM (active)"}
{"STRUCTURE NOTATION": "CCOC(=O)c1cccc(CNc2ccc(N(C)C(=O)Nc3ccccc3)cc2)c1", "VALUE REPORTED": "11.6 µM (active)"}
{"STRUCTURE NOTATION": "O=c1[nH]c2ccccc2n1CCN1CCN(c2cccc(C(F)(F)F)c2)CC1", "VALUE REPORTED": "23.1 µM (active)"}
{"STRUCTURE NOTATION": "CC(=O)NCCc1c[nH]c2ccc(O)cc12", "VALUE REPORTED": "inactive"}
{"STRUCTURE NOTATION": "N#Cc1c(O)c2c(-c3ccc(-c4ccccc4O)cc3)csc2[nH]c1=O", "VALUE REPORTED": "inactive"}
{"STRUCTURE NOTATION": "Cc1cc(OCc2nnc(SC3CCCC3)n2-c2cccnc2)ccc1-c1ccc(S(C)(=O)=O)cc1", "VALUE REPORTED": "0.116 µM (active)"}

---

# TEST NAME: Viability qHTS for spleen associated tyrosine kinase inhibitor (SYKi) drug resistant MV4-11 cells (AID 1963824); also: nearly all actives have a fitted effect of over 35% in size
# CONDITION CONTEXT: SYKi-resistant MV4-11 viability, CellTiter-Glo, 72 h; series mostly up to 45 µM
Inconclusive results are not listed. Active and inactive are the calls of the source. Calls follow the shape of the dose curve; as a rule, active = well fitted cell-killing curve with a large enough effect; inconclusive = small, poorly fitted or top-dose-only effect, or effect the other way; inactive = no such curve, though single readings can be large or run the other way.
Labels: active, inactive

{"MOLECULE": "CC(=O)OC[C@H]1O[C@@H](n2ncc(=O)[nH]c2=O)[C@H](OC(C)=O)[C@@H]1OC(C)=O", "LABEL VALUE": "inactive"}
{"MOLECULE": "Oc1ccc(Cl)cc1Cc1cc(Cl)ccc1O", "LABEL VALUE": "active"}
{"MOLECULE": "Cc1ccccc1-n1nc(-c2c(-c3ccc(F)cc3)nn3c2NC[C@@H](CO)C3)ccc1=O", "LABEL VALUE": "active"}
{"MOLECULE": "CCOC(=O)[C@H](CCc1ccccc1)N[C@@H](C)C(=O)N1C(=O)N(C)C[C@H]1C(=O)O", "LABEL VALUE": "inactive"}
{"MOLECULE": "CCC(C)n1cc(C)c2c(C(=O)NCc3c(C)cc(C)[nH]c3=O)cc(-c3ccc(N4CCNCC4)nc3)cc21 (stereo not given)", "LABEL VALUE": "active"}

---

# TEST NAME: Quantitative highthroughput screen to assess conditional lethalithy of SEM cells grown in RPMI1640 with dialyzed fetal bovine serum (RPMI+ds) (AID 1963884); also: nearly all actives have a fitted effect of over 35% in size; also: potency is read from the fitted curve at half-maximal effect
# CONDITION CONTEXT: SEM B-ALL cells, RPMI+dialyzed FBS, CellTiter-Glo viability, 48 h; series mostly up to 45.8 µM
Records with an inconclusive call do not appear. Active and inactive are the calls of the source. The call rests on the fitted dose curve; in most records, active means well fitted cell-killing curve with a large enough effect; inconclusive means small, poorly fitted or top-dose-only effect, or effect the other way; inactive means no such curve, though single readings can be large or run the other way.
PROPERTY LABEL: Potency

{"COMPOUND": "COc1ccc(Nc2nccc(NCCO)n2)cc1", "VALUE REPORTED": "inactive"}
{"COMPOUND": "C=CC(=O)Nc1cccc(Sc2nc(Nc3ccc(N4CCN(C)CC4)cc3)ncc2Cl)c1", "VALUE REPORTED": "16600 nM (active)"}
{"COMPOUND": "O=C(NC1CCNCC1)c1[nH]ncc1NC(=O)c1c(Cl)cccc1Cl", "VALUE REPORTED": "1320 nM (active)"}
{"COMPOUND": "CC1(C)[C@H](C(=O)O)N2C(=O)C[C@H]2S1(=O)=O", "VALUE REPORTED": "inactive"}
{"COMPOUND": "CN1CCC(CNc2ccc3ncc(-c4cccc(OC(F)(F)F)c4)n3n2)CC1", "VALUE REPORTED": "1320 nM (active)"}
{"COMPOUND": "Oc1ccc(-c2nc(-c3ccc(F)cc3)c(-c3ccncc3)[nH]2)cc1", "VALUE REPORTED": "372 nM (active)"}
{"COMPOUND": "CCOC(=O)[C@@H](N)CCC(=O)N[C@@H](CSCc1ccccc1)C(=O)N[C@@H](C(=O)OCC)c1ccccc1", "VALUE REPORTED": "inactive"}
{"COMPOUND": "OC(Cn1cncn1)(Cn1cncn1)c1ccc(F)cc1F", "VALUE REPORTED": "inactive"}
{"COMPOUND": "Nc1nc(-c2nn(Cc3ccccc3F)c3ncccc23)nc(N)c1N1CCOCC1", "VALUE REPORTED": "inactive"}
{"COMPOUND": "CN(C)c1ccc(C2Nc3ccc4ccccc4c3C3=C2C(=O)CC(C)(C)C3)cc1Br (centres undefined)", "VALUE REPORTED": "inactive"}
{"COMPOUND": "CCN(CC)CCCCNc1ncc2c(n1)N(C)C(=O)N(c1c(Cl)c(OC)cc(OC)c1Cl)C2", "VALUE REPORTED": "14800 nM (active)"}
{"COMPOUND": "N#Cc1ccnc(Nc2cc(C3CCN(C4COC4)CC3)cc(N3CCC(F)(F)C3)n2)c1", "VALUE REPORTED": "9330 nM (active)"}
{"COMPOUND": "CCn1cc(-c2ccnc3[nH]c(-c4cccc(CN(C)C)c4)cc23)c(-c2ccc(NC(=O)N(C)C)cc2)n1", "VALUE REPORTED": "59 nM (active)"}
{"COMPOUND": "CC(O)C1C(=O)N2C(C(=O)O)=C(SC3CNC(C(=O)N(C)C)C3)C(C)C12 (centres undefined)", "VALUE REPORTED": "inactive"}
{"COMPOUND": "NC[C@H]1O[C@H](O[C@@H]2[C@@H](O)[C@@H](O[C@H]3O[C@H](CO)[C@@H](O)[C@H](N)[C@@H]3O)[C@H](N)C[C@@H]2N)[C@H](O)[C@@H](O)[C@H]1O", "VALUE REPORTED": "inactive"}
{"COMPOUND": "CC(=O)Oc1ccccc1C(=O)O", "VALUE REPORTED": "inactive"}
{"COMPOUND": "Cc1onc(-c2ccccc2)c1C(=O)N[C@@H]1C(=O)N2[C@@H](C(=O)O)C(C)(C)S[C@@H]12", "VALUE REPORTED": "inactive"}
{"COMPOUND": "Nc1nc(Cl)nc2c1ncn2[C@H]1C[C@H](O)[C@@H](CO)O1", "VALUE REPORTED": "66.2 nM (active)"}
{"COMPOUND": "CNC(=O)[C@H](Cc1ccccc1)NC(=O)[C@H](CC(C)C)[C@H](CSc1cccs1)C(=O)NO", "VALUE REPORTED": "14800 nM (active)"}
